assay-system: Arachidonate 5-lipoxygenase-activating protein (Homo sapiens)
Sequence (P20292 whole entry): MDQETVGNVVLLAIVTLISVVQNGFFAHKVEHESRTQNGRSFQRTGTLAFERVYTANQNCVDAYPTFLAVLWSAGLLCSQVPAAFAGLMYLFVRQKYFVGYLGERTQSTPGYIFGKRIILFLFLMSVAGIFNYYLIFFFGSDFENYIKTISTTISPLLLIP
assay-remarks: Measuring the affinity of leukotriene synthesis inhibitor for 5-lipoxygenase activating protein by using [125I]L-691831 as radioligand.

{"columns": ["record-smiles", "assay-system", "IC50, nM"],
 "data": [
  ["CC(C)(C)Sc1c(CC(C)(C)C(=O)O)n(Cc2ccc(Cl)cc2)c2ccc(OCc3ccc4cccnc4n3)cc12", "Arachidonate 5-lipoxygenase-activating protein (Homo sapiens)", 2],
  ["CC(C)(C)Sc1c(CC(C)(C)C(=O)O)n(Cc2ccc(Cl)cc2)c2ccc(OCc3nc4cc(C(F)(F)F)ccc4s3)cc12", "Arachidonate 5-lipoxygenase-activating protein (Homo sapiens)", 186],
  ["CC(C)(C)Sc1c(CC(C)(C)C(=O)O)n(Cc2ccc(Cl)cc2)c2ccc(OCc3ccc4cc(F)ccc4n3)cc12", "Arachidonate 5-lipoxygenase-activating protein (Homo sapiens)", 2],
  ["CC(C)(C)Sc1c(CC(C)(C)C(=O)O)n(Cc2ccc(Cl)cc2)c2ccc(OCc3ccc4cc(F)c(F)cc4n3)cc12", "Arachidonate 5-lipoxygenase-activating protein (Homo sapiens)", 14],
  ["CC(C)(C)Sc1c(CC(C)(C)C(=O)O)n(Cc2ccc(Cl)cc2)c2ccc(OCc3ccncc3)cc12", "Arachidonate 5-lipoxygenase-activating protein (Homo sapiens)", 48],
  ["CC(C)(C)Sc1c(CC(C)(C)C(=O)O)n(Cc2ccc(Cl)cc2)c2ccc(OCc3cccs3)cc12", "Arachidonate 5-lipoxygenase-activating protein (Homo sapiens)", 70],
  ["CC(C)(C)Sc1c(CC(C)(C)C(=O)O)n(Cc2ccc(Cl)cc2)c2ccc(OCc3ccc4c(n3)CCCC4)cc12", "Arachidonate 5-lipoxygenase-activating protein (Homo sapiens)", 8],
  ["COc1ccc2nc(COc3ccc4c(c3)c(SC(C)(C)C)c(CC(C)(C)C(=O)O)n4Cc3ccc(Cl)cc3)sc2c1", "Arachidonate 5-lipoxygenase-activating protein (Homo sapiens)", 73]
]}

* * *

assay-remarks: plasma level at 2 hr after administration of the compound
Format: ADME, organism-based
measurement-context: rat
Response field label: string, one of y (concentration at 2 h strictly below 8 µM) or n.

{"columns": ["compound", "category"],
 "data": [
  ["CC(C)(C)Sc1c(CC(C)(C)C(=O)O)n(Cc2ccc(Cl)cc2)c2ccc(OCc3nc4ccccc4s3)cc12", "y"],
  ["CC(Oc1ccc2c(c1)c(SC(C)(C)C)c(CC(C)(C)C(=O)O)n2Cc1ccc(Cl)cc1)c1ccc2ccccc2n1 (single isomer, unassigned; (-))", "y"],
  ["C[C@@H](COc1ccc2c(c1)c(SC(C)(C)C)c(CC(C)(C)C(=O)O)n2Cc1ccc(Cl)cc1)c1ccccn1", "n"],
  ["CC(C)(C)Sc1c(CC(C)(C)C(=O)O)n(Cc2ccc(Cl)cc2)c2ccc(OCc3ccccn3)cc12", "n"],
  ["CC(C)(C)Sc1c(CC(C)(C)C(=O)O)n(Cc2ccc(Cl)cc2)c2ccc(OCc3cccc(Cl)n3)cc12", "y"]
]}

* * *

assay-system: UniProtKB P20292
Sequence (P20292 whole entry): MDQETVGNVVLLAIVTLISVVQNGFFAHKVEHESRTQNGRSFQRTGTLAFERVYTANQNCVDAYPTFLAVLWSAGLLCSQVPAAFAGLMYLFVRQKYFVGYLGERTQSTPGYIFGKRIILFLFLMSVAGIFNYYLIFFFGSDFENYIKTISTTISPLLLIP
assay-remarks: Measuring the affinity of leukotriene synthesis inhibitor for 5-lipoxygenase activating protein by using [125I]L-691831 as radioligand.
pIC50: −log10 of the molar value.

{"columns": ["molecule", "assay-system", "pIC50"],
 "data": [
  ["CC(C)(C)Sc1c(CC(C)(C)C(=O)O)n(Cc2ccc(Cl)cc2)c2ccc(OCc3cc4ccccc4cn3)cc12", "UniProtKB P20292", 8.00],
  ["C[C@H](COc1ccc2c(c1)c(SC(C)(C)C)c(CC(C)(C)C(=O)O)n2Cc1ccc(Cl)cc1)c1ccccn1", "UniProtKB P20292", 7.92],
  ["CC(C)(C)Sc1c(CC(C)(C)C(=O)O)n(Cc2ccc(Cl)cc2)c2ccc(OCc3ccc4cnccc4n3)cc12", "UniProtKB P20292", 8.70],
  ["CC(C)(C)Sc1c(CC(C)(C)C(=O)O)n(Cc2ccc(Cl)cc2)c2ccc(OCc3ccccn3)cc12", "UniProtKB P20292", 8.52],
  ["CC(C)(C)Sc1c(CC(C)(C)C(=O)O)n(Cc2ccc(Cl)cc2)c2ccc(OCc3nc4ccccc4o3)cc12", "UniProtKB P20292", 8.30],
  ["CC(C)(C)Sc1c(CC(C)(C)C(=O)O)n(Cc2ccc(Cl)cc2)c2ccc(OCc3cccnc3)cc12", "UniProtKB P20292", 7.23],
  ["CC(C)(C)Sc1c(CC(C)(C)C(=O)O)n(Cc2ccc(Cl)cc2)c2ccc(OCc3ccnc4ccccc34)cc12", "UniProtKB P20292", 7.21],
  ["CC(C)c1csc(COc2ccc3c(c2)c(SC(C)(C)C)c(CC(C)(C)C(=O)O)n3Cc2ccc(Cl)cc2)n1", "UniProtKB P20292", 7.89],
  ["CC(Oc1ccc2c(c1)c(SC(C)(C)C)c(CC(C)(C)C(=O)O)n2Cc1ccc(Cl)cc1)c1ccc2ccccc2n1 (racemic)", "UniProtKB P20292", 7.80],
  ["Cc1nc(COc2ccc3c(c2)c(SC(C)(C)C)c(CC(C)(C)C(=O)O)n3Cc2ccc(Cl)cc2)cs1", "UniProtKB P20292", 8.52],
  ["CC(Oc1ccc2c(c1)c(SC(C)(C)C)c(CC(C)(C)C(=O)O)n2Cc1ccc(Cl)cc1)c1ccc2ccccc2n1 (single isomer, unassigned; (-))", "UniProtKB P20292", 8.15],
  ["CC(C)(C)Sc1c(CC(C)(C)C(=O)O)n(Cc2ccc(Cl)cc2)c2ccc(COCc3ccc4ccccc4n3)cc12", "UniProtKB P20292", 7.59],
  ["CC(C)(C)Sc1c(CC(C)(C)C(=O)O)n(Cc2ccc(Cl)cc2)c2c(OCc3ccc4ccccc4n3)cccc12", "UniProtKB P20292", 5.71],
  ["CC(C)(C)Sc1c(CC(C)(C)C(=O)O)n(Cc2ccc(Cl)cc2)c2ccc(CCc3ccc4ccccc4n3)cc12", "UniProtKB P20292", 7.80],
  ["CC(C)(C)Sc1c(CC(C)(C)C(=O)O)n(Cc2ccc(Cl)cc2)c2ccc(/C=C/c3ccc4ccccc4n3)cc12", "UniProtKB P20292", 7.96],
  ["Cc1nc2ccc(COc3ccc4c(c3)c(SC(C)(C)C)c(CC(C)(C)C(=O)O)n4Cc3ccc(Cl)cc3)cc2s1", "UniProtKB P20292", 7.40]
]}

* * *

assay-system: Arachidonate 5-lipoxygenase-activating protein (Homo sapiens, UniProt P20292)
assay-remarks: Measuring the affinity of leukotriene synthesis inhibitor for 5-lipoxygenase activating protein by using [125I]L-691831 as radioligand.
Response field label: string, one of True (IC50 strictly below 80 nM) or False.

{"columns": ["compound", "assay-system", "category"],
 "data": [
  ["CC(C)(C)Sc1c(CC(C)(C)C(=O)O)n(Cc2ccc(Cl)cc2)c2cc(OCc3ccc4ccccc4n3)ccc12", "Arachidonate 5-lipoxygenase-activating protein (Homo sapiens, UniProt P20292)", "False"],
  ["CC(C)(C)Sc1c(CC(C)(C)C(=O)O)n(Cc2ccc(Cl)cc2)c2ccc(OCc3nc4ccccc4s3)cc12", "Arachidonate 5-lipoxygenase-activating protein (Homo sapiens, UniProt P20292)", "True"],
  ["CC(C)(C)Sc1c(CC(C)(C)C(=O)O)n(Cc2ccc(Cl)cc2)c2ccc(OCc3cccc(Cl)n3)cc12", "Arachidonate 5-lipoxygenase-activating protein (Homo sapiens, UniProt P20292)", "True"],
  ["CC(Oc1ccc2c(c1)c(SC(C)(C)C)c(CC(C)(C)C(=O)O)n2Cc1ccc(Cl)cc1)c1ccc2ccccc2n1 (stereo in doubt; 6)", "Arachidonate 5-lipoxygenase-activating protein (Homo sapiens, UniProt P20292)", "False"],
  ["CC(C)(C)Sc1c(CC(C)(C)C(=O)O)n(Cc2ccc(Cl)cc2)c2ccc(OCc3cnc4ccccc4c3)cc12", "Arachidonate 5-lipoxygenase-activating protein (Homo sapiens, UniProt P20292)", "True"],
  ["CC(C)(C)Sc1c(CC(C)(C)C(=O)O)n(Cc2ccc(Cl)cc2)c2cccc(OCc3ccc4ccccc4n3)c12", "Arachidonate 5-lipoxygenase-activating protein (Homo sapiens, UniProt P20292)", "False"]
]}
